tested on: U-251; assay: NCI tumour cell line growth inhibition, 48 h
Active and inactive are the calls of the source. Rule as the data show it: active = GI50 up to about 1.1 µM and inactive = higher.
EXPERIMENTAL READOUT: GI50

Below, 6 compounds whose answers are already recorded.
[N-]=[N+]=CC(=O)OCCCCl
> 100 µM (inactive)
CCn1c(-c2ccc(C)cc2)cs/c1=N\C(P(=O)(O)O)P(=O)(O)O
> 100 µM (inactive)
COC1=CC(=O)NCCN1
> 100 µM (inactive)
O=C1c2ccccc2C(=O)c2cc(/N=N/c3c(O)ccc4ccccc34)ccc21
56.4 µM (inactive)
O=C1C=CC(=O)c2c(O)nc(CBr)nc21
95.9 µM (inactive)
S=C1/C(=N/c2ccccc2)N(c2ccccc2)/C(=N\c2ccccn2)N1c1ccccc1
15.8 µM (inactive)

Sample `O=C(O)C(Cc1ccccc1)Cc1ccccc1` , system: U-251. Its GI50 is > 100 µM (inactive)

Tested on U-251: COc1cc([C@@H]2c3cc4c(cc3[C@@H](NCc3ccccc3)C3COC(=O)[C@@H]32)OCO4)cc(OC)c1O (some centres not stated) . Observed GI50: 3.71 µM (inactive)

Reported U-251 GI50 for item `CN(C)C(=O)/N=c1\ss/c(=N\C(=S)N(C)C)n1-c1ccccc1` was 27 µM (inactive)

Item `CC(C)(C)c1ccc(-n2c3nc(=O)n(-c4ccccc4CO)c(=O)c-3cc3ccccc32)cc1` was tested on U-251; the reported GI50 is 55.6 µM (inactive)

Assay U-251, sample O=P1(C(O)/C=C/c2ccccc2)N(Cc2ccccc2)[C@@H]2CCCC[C@H]2N1Cc1ccccc1 (some centres not stated) , GI50 read: 4.21 µM (inactive)

The recorded GI50 with U-251 for CCOC(=O)CCC(NC(=O)c1ccc(/N=C/c2nc3ccccc3nc2-c2ccccc2)cc1)C(=O)OCC (configuration not stated) was > 100 µM (inactive)

`CC(C)OC(=O)C1=C(O)c2ccccc2S(=O)(=O)N1` tested on U-251 gave GI50: > 100 µM (inactive)

The measured GI50 that `O=C1C(=O)N(c2ccc(Cl)cc2Cl)C(=O)C(=O)C1c1nc2ccccc2s1` showed for U-251 is > 43.9 µM (inactive)

Record `O=C1NC(NNc2ccccc2)=N/C1=C\c1ccccc1O` ; system U-251; GI50 = 70.5 µM (inactive)

Entry `Cc1ccc2c(O)cc(-c3ccccc3)nc2n1` , tested on U-251, has a reported GI50 of 0.0875 µM (active)

Hey, U-251 data for `Cc1ccc(S(=O)(=O)NN=C2CCCCCCCCCCC2)cc1` : GI50 came out at > 100 µM (inactive)

Form field GI50 for item Oc1ccccc1C1C=C(c2ccccc2)NC(N2CCCCC2)=C1c1nc2ccccc2[nH]1 (configuration not stated) on U-251: 15.1 µM (inactive)

Entry CC1=C(O)C(=O)C=C2C1=CC=C1[C@@]2(C)CC[C@@]2(C)C3C[C@@H](C)C(=O)[C@@H](O)[C@]3(C)CC[C@]12C (some centres not stated) : GI50 on U-251 = 1.85 µM (inactive)

The reported U-251 GI50 of `CC(=O)OCCCCn1cnc2c(Cl)nc(Nc3ccccc3)nc21` is > 100 µM (inactive)

Form field GI50 for item `Nc1nc(N)nc(CCCc2nc(N)nc(N)n2)n1` on U-251: > 100 µM (inactive)

Bench note, U-251: `COc1ccc(-c2c3c([nH]c(=S)c2C#N)CC(C)(C)CC3=O)cc1` , GI50 reads > 100 µM (inactive)
